Reference source for all entries: PubChem BioAssay (NCI)

assay.summary: NCI Yeast Anticancer Drug Screen. Data for the rad50 strain (AID 155);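 note: 0% = growth of vehicle-only cultures of the same strain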
condition.context: S. cerevisiae rad50 strain growth inhibition; at 50.0 µM; hits give high values
About 79,000 compounds went through this panel and 15% of them were active in at least one assay; those are over-represented in the sample as a whole.
endpoint.label: growth inhibition (%)
Numbers only; they are read as %.

# compound, units.symbol, value.measured
data = [
    ("C=CCOc1cc(NC(=S)c2ccoc2C)ccc1OC", "%", -17.4),
    ("NC(=O)c1nc(C2OC(CO)C(O)C2O)cs1 (stereo not given)", "%", -0.7),
    ("CCO/N=C(\\C(=O)NO)c1ccccc1", "%", -6.35),
    ("CCN(CCO)CC(O)Cn1cnc2c(N)ncnc21 (stereo not given)", "%", 2.35),
]

# evaluate next
Just so you know, measured growth inhibition for CCCc1c(OC(=O)c2ccc([N+](=O)[O-])cc2)cccc1OC(=O)c1ccc([N+](=O)[O-])cc1 came out at 20.1

* * *

growth inhibition: recorded values
assay.summary: NCI Yeast Anticancer Drug Screen. Data for the mlh1 rad18 strain (AID 175)
condition.context: S. cerevisiae mlh1 rad18 strain growth inhibition; at 50.0 µM; hits give high values
About 79,000 compounds went through this panel and 15% of them were active in at least one assay; those are over-represented in the sample as a whole. Where a SMILES comes first, the peptide text is derived from it. The star is where a group is joined. Cbz = O=C(OCc1ccccc1)*
Numbers only; they are read as %.

# compound, growth inhibition [%]
data = [
    ("CC(C(=O)O)N(CCC#N)CCC#N (stereo unspecified)", 3.4),
    ("COc1ccccc1N=NC1=C2Nc3ccccc3N=C1N(c1ccccc1OC)C(=S)N2c1ccccc1C", -30.4),
    ("N#CCc1nn(-c2ccccc2)c2ncn(N)c(=N)c12", -12.2),
    ("O=C1OC(=O)C2C1C1(Cl)CC2(Cl)C(Cl)=C1Cl (stereo unspecified)", -18.6),
    ("CCOC(=O)C(CC(C)C)NC(=O)c1cnc2ccccc2c1 (stereo unspecified)", 21.9),
]

Just so you know, measured growth inhibition for O=[N+]([O-])c1ccc(/C=C(/c2ccc([N+](=O)[O-])o2)S(=O)(=O)C(Cl)(Cl)Cl)cc1 came out at 97.8

Just so you know, measured growth inhibition for CCOc1ccc(C(=O)OCCCl)cc1 came out at 10.6

Just so you know, measured growth inhibition for Cc1cc2c(=O)c3ccc(Cl)cc3[nH]c2c(C(N)=O)c1C came out at 13.3

Just so you know, measured growth inhibition for NC(=O)CCC(Nc1c2ccccc2nc2ccccc12)C(=O)O (stereo unspecified) came out at 48.2

Just so you know, measured growth inhibition for COC(=O)C12OCC34C(CC5C(C)CC(=O)C(O)C5(C)C3C(O)C1O)OC(=O)C(OC(C)=O)C24 (stereo unspecified) came out at 31.6

Just so you know, measured growth inhibition for COc1ccc2c3ccc4c(c3n(C)c2c1)C(=O)c1ccccc1C4=O came out at -46.1

Just so you know, measured growth inhibition for CCCCCCCC(=O)N(CCCCC)CCCCC came out at 66.5

Just so you know, measured growth inhibition for COC(=O)C(NC(=O)C(C)NC(=O)C1CCCN1C(=O)CNC(=O)C(CO)NC(=O)C(NC(=O)OCc1ccccc1)C(C)O)C(C)O (stereo unspecified) (Cbz-TSGPAT-OMe; configuration not given here) came out at 10.6

Just so you know, measured growth inhibition for Clc1ccc([I+]c2ccc(Cl)cc2)cc1 came out at 97.2

Just so you know, measured growth inhibition for COc1cc(C2C(C(=O)O)=C(CO)Oc3cc4c(cc32)OCO4)cc(OC)c1OC (stereo unspecified) came out at 4.25

Just so you know, measured growth inhibition for COC(=O)CC1C(OC)OC23CCC1C2(C)CCC1C3CCC2CC(OC(C)=O)CCC21C (stereo unspecified) came out at 8.5

* * *

growth inhibition: recorded values
assay.summary: NCI Yeast Anticancer Drug Screen. Data for the sgs1 mgt1 strain (AID 161);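 note: 0% = growth of cultures given vehicle only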
condition.context: S. cerevisiae sgs1 mgt1 strain, at 50.0 µM, hits give high values
The panel holds about 79,000 compounds, 15% with a hit somewhere; the sample as a whole holds those more often.
Numbers only; they are read as %.

# compound, value.measured
data = [
    ("Cc1ccc(S(=O)(=O)N2CCCN(S(=O)(=O)c3ccc(C)cc3)COC2)cc1", -8.4),
]

Just so you know, measured growth inhibition for COc1cc(/C=N/N=C(\N)NO)cc(OC)c1OC came out at 2.4

Just so you know, measured growth inhibition for Cc1ccc(S(=O)(=O)C2(NC(=O)C3CC3)CC2)cc1 came out at -26.2

Just so you know, measured growth inhibition for CSc1nc(=O)cnn1C came out at -15.6

* * *

assay.summary: NCI Yeast Anticancer Drug Screen. Data for the cln2 rad14 strain (AID 165);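 note: 0% = growth equal to vehicle treated cultures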
condition.context: S. cerevisiae cln2 rad14 strain, at 50.0 µM, hits give high values
Protocol: Growth inhibition of yeast strains with defined genetic alterations is measured as a screen for potential anti-cancer activity. Selected strains with alterations in DNA damage repair or cell cycle control were exposed to compounds and growth inhibition was measured relative to vehicle treated controls. The strain used in this assay is cln2 rad14
Compounds without any hit were thinned out: in the full panel of roughly 79,000, 15% have a hit.
growth inhibition: recorded values
Numbers only; they are read as %.

Sample answers from the record:
# compound, growth inhibition (%)
measured = [
    ("Cc1ccc(Nc2nnc(Nc3ccc(C)cn3)c3ccccc23)nc1", -18.8),
    ("Cc1cccc(Cl)c1NC(=O)Nc1ccc(C#N)cc1", 5.35),
    ("Nc1nnc2c(=O)[nH]cnc2n1", -14.4),
    ("COc1ccc(CC2(C(=O)O)NCCc3cc(O)c(OC)cc32)cc1O (stereo not given)", 4.15),
]

Just so you know, measured growth inhibition for CCCCCOC(=O)c1cc2ccccc2cc1O came out at -39.6

* * *

assay.summary: NCI Yeast Anticancer Drug Screen. Data for the mlh1 rad18 strain (AID 175)
condition.context: S. cerevisiae mlh1 rad18 strain growth inhibition; at 50.0 µM; hits give high values
About 79,000 compounds went through this panel and 15% of them were active in at least one assay; those are over-represented in the sample as a whole. Activity calls are given as the source filed them. Cut-off read from the data, not from the text of the source: active = growth inhibition above about 70%; inactive = the rest.
growth inhibition: recorded values

# compound, growth inhibition
measured = [
    ("CC(/C=N\\NC(=S)SCc1ccccc1)=N/N=C(N)N", "64.6% (inactive)"),
]

# evaluate next
Just so you know, measured growth inhibition for NC(CC1=CS(=O)(=O)c2ccc(Cl)cc21)C(=O)O (stereo not drawn) came out at 23.9% (inactive)

* * *

assay.summary: NCI Yeast Anticancer Drug Screen. Data for the rad50 strain (AID 155);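 note: 0% = growth of vehicle-only cultures of the same strain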
condition.context: S. cerevisiae rad50 strain growth inhibition; at 50.0 µM; hits give high values
This is part of a sample that, as a whole, favours compounds with a hit. Of some 79,000 tested, about 15% had one in any assay.
growth inhibition: recorded values
Numbers only; they are read as %.

Sample answers from the record:
# compound, growth inhibition, %
rows = [
    ("N#Cc1c(C(=O)NN)c2c(-c3ccc4ccccc4c3)n[nH]c(=O)c2[nH]c1=O", 20.4),
    ("CCCCS/C=C1\\CC2OC(=O)C3(C)CCCC(C)(C1=O)C23 (stereo not drawn)", -1.85),
    ("CC12CCC3C(CC=C4CC(O)CCC43C)C1CCC(=O)N2 (stereo not drawn)", 5.2),
    ("COc1ccc2c(N=[N+]=[N-])c(-c3ccccc3)c(=O)oc2c1", 11.8),
    ("Cc1ccccc1C(=O)N1CCOCC1", -10.9),
    ("Cc1cccc(-n2c(N)cc(=O)[nH]c2=S)n1", -11.5),
    ("Cc1ccccc1C(OCCN(C)C)c1ccccc1 (stereo not drawn)", -46.2),
    ("CC1(C=O)C(=O)CCC2(C)C3CC(=O)OC3CCC12 (stereo not drawn)", -35),
]

# evaluate next
Just so you know, measured growth inhibition for CCC1(CC)COC2(CCC(C)CC2)OC1 came out at -6.4

* * *

assay.summary: NCI Yeast Anticancer Drug Screen. Data for the bub3 strain (AID 167)
condition.context: S. cerevisiae bub3 mutant strain, at 50.0 µM, hits give high values
About 79,000 compounds went through this panel and 15% of them were active in at least one assay; those are over-represented in the sample as a whole.
endpoint.label: growth inhibition (%)
Numbers only; they are read as %.

Sample answers from the record:
# compound, units.symbol, growth inhibition
rows = [
    ("Cc1ccc(S(=O)(=O)OCC2OC(CCCO)C/C([Si](C)(C)C)=C\\CC2Cl)cc1 (configuration not stated)", "%", 34.5),
    ("C[C@]12CCC(=O)C=C1CC[C@@H]1[C@@H]2CC[C@@]2(C)[C@H]1CC[C@]2(O)C(=O)CCC#N", "%", -16.8),
    ("CN(CCN1CCOCC1)C(c1ccccc1)c1ccccc1", "%", 52.4),
    ("CCOC(=O)Cc1nnc2n(-c3ccccc3)c(=O)c3ccccc3n12", "%", -21.9),
    ("COc1ccc2c(c1)c1cc(OC)ccc1n2CCCCOc1ccc(-c2c3ccccc3c(-c3ccc(OCCCCn4c5ccc(OC)cc5c5cc(OC)ccc54)cc3)c3ccccc23)cc1", "%", 7.9),
]

Just so you know, measured growth inhibition for CCCCCC1c2cc(O)ccc2OC1N1CCOCC1 (configuration not stated) came out at 46.7

Just so you know, measured growth inhibition for C[N+]1(C)CCC(O)C(c2ccccc2)C1 (configuration not stated) came out at -8.1
